Source of measurements: patent US8598119B2

- tgt: H1 receptors (Homo sapiens (Human), UniProt P35367)
- Sequence (P35367 whole entry): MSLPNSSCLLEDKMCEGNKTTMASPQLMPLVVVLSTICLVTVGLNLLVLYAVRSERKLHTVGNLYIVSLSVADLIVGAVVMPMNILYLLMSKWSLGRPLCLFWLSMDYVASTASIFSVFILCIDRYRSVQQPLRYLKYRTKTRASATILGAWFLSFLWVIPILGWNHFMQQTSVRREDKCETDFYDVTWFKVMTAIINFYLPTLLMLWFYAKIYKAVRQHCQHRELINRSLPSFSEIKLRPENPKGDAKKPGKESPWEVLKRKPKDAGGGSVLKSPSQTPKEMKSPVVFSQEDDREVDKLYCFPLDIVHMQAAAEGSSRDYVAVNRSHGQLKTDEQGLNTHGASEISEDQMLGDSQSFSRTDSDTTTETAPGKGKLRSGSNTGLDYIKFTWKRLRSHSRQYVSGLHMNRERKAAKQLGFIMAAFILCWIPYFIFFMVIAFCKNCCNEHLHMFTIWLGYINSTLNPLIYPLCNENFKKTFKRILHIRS
quantityMeasured: Ki

Request: Please report the recorded Ki for CN1CCN2c3c(cccc31)[C@@H]1CN(CCCC(=O)c3ccc(F)cc3)CC[C@@H]12 [Compound A] .
Result: > 100 nM

----------
- tgt: human 5-HT2C receptors (Homo sapiens (Human), UniProt P28335, I156V/I160V)
- Sequence (P28335 33-458 I156V/I160V): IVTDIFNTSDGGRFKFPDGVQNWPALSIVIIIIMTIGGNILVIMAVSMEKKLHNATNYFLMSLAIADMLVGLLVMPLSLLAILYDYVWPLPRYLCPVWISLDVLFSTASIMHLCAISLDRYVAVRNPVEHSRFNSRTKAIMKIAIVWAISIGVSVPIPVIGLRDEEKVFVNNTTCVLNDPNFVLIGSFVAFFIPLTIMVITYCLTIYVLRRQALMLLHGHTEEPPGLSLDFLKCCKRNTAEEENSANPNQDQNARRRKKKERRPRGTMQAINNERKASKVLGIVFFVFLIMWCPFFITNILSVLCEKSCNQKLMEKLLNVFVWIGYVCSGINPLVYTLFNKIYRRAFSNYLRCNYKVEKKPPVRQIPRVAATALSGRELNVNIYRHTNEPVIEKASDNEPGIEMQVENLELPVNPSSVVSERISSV
- protocolDetails: biochemical
quantityMeasured: Ki (nM)
Entry rule: numbers only, all in nM.

Request: Please report the recorded Ki for `CN1CCN2c3c(cccc31)[C@@H]1CN(CCCC(=O)c3ccc(F)cc3)CC[C@@H]12` .
Result: 173
